Origin of measurements: ChEMBL document CHEMBL1127689

experiment: Relative specificity for human MAO-A and bovine MAO-B
Exercise: state measured Selectivity for each of the molecules provided.
One number for each entry.

Example entries begin here.
According to the records, this molecule CN1CC=C(Oc2ccc3ccccc3c2)CC1 displays Selectivity of 2.21

Reported Selectivity for CCCCc1ccc(OC2=CCN(C)CC2)cc1 was 1.54

The molecule listed as CN1CC=C(Cc2ccccc2)CC1 has a reported Selectivity of 0.11

Please look at the items below and tell me Selectivity for each one, in order.
1. CN1CC=C(Oc2ccc(Cl)cc2Cl)CC1
2. CN1CC=C(Oc2ccccc2)CC1
3. CN1CC=C(Oc2ccc(-c3ccccc3)cc2)CC1
4. CN1CC=C(Oc2cccc3ccccc23)CC1

Outgoing:
[2.47, 0.57, 4.72, 2.77]

Provide Selectivity for all items below, preserving their order.
1. CN1CC=C(Cc2ccc3ccccc3c2)CC1
2. CN1CC=C(Cc2cccc3ccccc23)CC1
3. CN1CC=C(c2ccccc2)CC1

Outgoing:
10.8
24.7
0.27

Reported Selectivity ( CN1CC=C(Oc2ccc(C(C)(C)C)cc2)CC1 ) = 2.17
